EC50 hGLP-1 R [pM] (formed cAMP): recorded values
- study-target: human GLP-1 receptor (human, UniProt P43220 24-463)
- assay: cell-based or functional assay
*1 amine or outer side, *2 acyl side, *3 side chain or, on linkers, in order; H or OH if unused. Where no end group is shown, it is not given here. Side-chain parts run from the residue outwards. [ ]: non-standard residue; d: D form. γGlu = O=C(O)[C@H](CCC(=O)[*:2])N[*:1]; x70 = not defined here; Aib = CC(C)(N)C(=O)O
reported-property: EC50 hGLP-1 R [pM] (formed cAMP) (pM)

[[record]]
binder = "Y[Aib]EGTFTSDLSIQK([γGlu-x70])EEEAVRLFIEWLK[Aib]GGPSSGAPPPS-NH2 (reading uncertain) [SEQ ID NO: 12]"
reported_property = "EC50 hGLP-1 R [pM] (formed cAMP)"
units = "pM"
measured_result = 11.9

[[record]]
binder = "Y[Aib]EGTFTSDLSIQK([γGlu-x70])EEEAVRLFIEWLKAGGPSSGAPPPS-NH2 (reading uncertain) [SEQ ID NO: 10]"
reported_property = "EC50 hGLP-1 R [pM] (formed cAMP)"
units = "pM"
measured_result = 12.5

[[record]]
binder = "Y[Aib]EGTFTSDLSIQK([γGlu-x70])EEEAVRLFIEWLK[Aib]GGPSSGAPPPS-NH2 (reading uncertain) [SEQ ID NO: 9]"
reported_property = "EC50 hGLP-1 R [pM] (formed cAMP)"
units = "pM"
measured_result = 26.7

[[record]]
binder = "Y[Aib]EGTFTSDLSIQK([γGlu-x70])EKEAVRLFIEWLKAGGPSSGAPPPS-NH2 (reading uncertain) [SEQ ID NO: 13]"
reported_property = "EC50 hGLP-1 R [pM] (formed cAMP)"
units = "pM"
measured_result = 21.2

